TEST NAME: Kpuu determination in the dog (plasma and CSF time course after oral capsule)
Type: in vivo, male beagle dog
TEST PARAMETERS: male, beagle, CSF, 20 mg/kg oral capsule, 4 h, read-out: CSF concentration
MEASURED ATTRIBUTE: concentration at 4 h (ng/mL)

1) CC(C)(C)CC[C@H](NCc1ccc2c(c1)COCC2)C(=O)O [Example 3]    745

###

EXPERIMENTAL SYSTEM: Sortilin (Homo sapiens, UniProt Q99523)
Construct: purchased Bio-Techne Ltd 3154-ST-050
Sequence (Q99523 78-755 limits assumed): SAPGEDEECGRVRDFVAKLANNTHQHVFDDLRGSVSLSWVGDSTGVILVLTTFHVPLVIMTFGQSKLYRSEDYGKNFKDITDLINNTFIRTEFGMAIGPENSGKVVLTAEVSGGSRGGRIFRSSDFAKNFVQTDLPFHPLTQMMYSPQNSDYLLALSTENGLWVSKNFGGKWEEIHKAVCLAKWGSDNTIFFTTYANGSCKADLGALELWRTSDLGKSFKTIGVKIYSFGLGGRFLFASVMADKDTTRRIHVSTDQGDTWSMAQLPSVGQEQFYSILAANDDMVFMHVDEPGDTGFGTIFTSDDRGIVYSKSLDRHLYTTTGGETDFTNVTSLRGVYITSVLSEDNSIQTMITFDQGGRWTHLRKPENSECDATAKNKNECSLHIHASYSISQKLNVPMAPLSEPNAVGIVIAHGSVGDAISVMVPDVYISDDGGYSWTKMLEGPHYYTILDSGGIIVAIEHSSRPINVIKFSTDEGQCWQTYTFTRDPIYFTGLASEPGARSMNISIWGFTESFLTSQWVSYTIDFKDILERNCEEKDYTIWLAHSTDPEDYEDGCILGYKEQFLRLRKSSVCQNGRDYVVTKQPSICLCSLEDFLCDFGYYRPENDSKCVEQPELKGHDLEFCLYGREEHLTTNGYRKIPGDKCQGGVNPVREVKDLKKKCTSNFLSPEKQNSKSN
TEST NAME: Creoptix (GCI) binding kinetics, human Sortilin
TEST PARAMETERS: Species Human; Form of Compound Mesylate salt; screened at 1 µM, 25 degrees Celsius
MEASURED ATTRIBUTE: Kd (nM)

1. CC(C)(C)CC[C@H](NCc1ccc(Oc2ccccc2)nc1)C(=O)O    49.1
2. CC(C)(C)CC[C@H](NCc1ccc2c(c1)COCC2)C(=O)O    52
3. C[C@H](N[C@@H](CCC(C)(C)C)C(=O)O)c1ccc2c(c1)CCCO2    221
